Plasma (0.1 μM), activity in % of control overview
target: Dopamine beta hydroxylase (Homo sapiens, UniProt P09172); construct: 125 μl of plasma; tissue Instituto Português do Sangue Transplantação; host or cells: human plasma from healthy donors; assay: Dopamine beta hydroxylase activity in human plasma; assay type: biochemical; conditions: inhibitor 0.1 μM

Query: Look at this compound and give its reported Plasma (0.1 μM), activity in % of control. O=C(Cc1[nH]c(=S)n2c1C[C@H](c1c(F)c(F)cc(F)c1F)C2)NC1CCC1
Reply: 60.7 % of control

Query: Look at this compound and give its reported Plasma (0.1 μM), activity in % of control. CS(=O)(=O)NC(=O)Cc1[nH]c(=S)n2c1C[C@@H](c1c(F)ccc(Br)c1F)C2
Reply: 31.0 % of control

Query: Look at this compound and give its reported Plasma (0.1 μM), activity in % of control. Cn1c(CCC(=O)N2CCC[C@H]2CO)c2n(c1=S)C[C@@H](c1c(F)ccc(F)c1F)C2
Reply: 55.8 % of control

Query: Look at this compound and give its reported Plasma (0.1 μM), activity in % of control. CS(=O)(=O)C1CCN(C(=O)Cc2[nH]c(=S)n3c2C[C@H](c2c(F)ccc(Br)c2F)C3)C1 (some centres unmarked)
Reply: 58.1 % of control

Query: Look at this compound and give its reported Plasma (0.1 μM), activity in % of control. Cn1c(CC(=O)Nc2ncco2)c2n(c1=S)C[C@H](c1c(F)ccc(Cl)c1F)C2
Reply: 5.3 % of control

Query: Look at this compound and give its reported Plasma (0.1 μM), activity in % of control. O=C(Cc1[nH]c(=S)n2c1[C@@H]1C[C@]1(c1cc(Br)ccc1F)C2)Nc1ccccn1
Reply: 2.0 % of control

Query: Look at this compound and give its reported Plasma (0.1 μM), activity in % of control. Cn1c(CC(=O)Nc2cnsc2)c2n(c1=S)C[C@@H](c1c(F)ccc(F)c1F)C2
Reply: 16.5 % of control

Query: Look at this compound and give its reported Plasma (0.1 μM), activity in % of control. Fc1ccc(Br)c(F)c1[C@H]1Cc2c(CCc3cccnc3)[nH]c(=S)n2C1
Reply: 72.1 % of control

---

Biological target: Dopamine beta hydroxylase (Homo sapiens, UniProt P09172)
Construct: 125 μl of plasma; tissue Instituto Português do Sangue Transplantação; host or cells: human plasma from healthy donors
Sequence (P09172 40-617 limits assumed): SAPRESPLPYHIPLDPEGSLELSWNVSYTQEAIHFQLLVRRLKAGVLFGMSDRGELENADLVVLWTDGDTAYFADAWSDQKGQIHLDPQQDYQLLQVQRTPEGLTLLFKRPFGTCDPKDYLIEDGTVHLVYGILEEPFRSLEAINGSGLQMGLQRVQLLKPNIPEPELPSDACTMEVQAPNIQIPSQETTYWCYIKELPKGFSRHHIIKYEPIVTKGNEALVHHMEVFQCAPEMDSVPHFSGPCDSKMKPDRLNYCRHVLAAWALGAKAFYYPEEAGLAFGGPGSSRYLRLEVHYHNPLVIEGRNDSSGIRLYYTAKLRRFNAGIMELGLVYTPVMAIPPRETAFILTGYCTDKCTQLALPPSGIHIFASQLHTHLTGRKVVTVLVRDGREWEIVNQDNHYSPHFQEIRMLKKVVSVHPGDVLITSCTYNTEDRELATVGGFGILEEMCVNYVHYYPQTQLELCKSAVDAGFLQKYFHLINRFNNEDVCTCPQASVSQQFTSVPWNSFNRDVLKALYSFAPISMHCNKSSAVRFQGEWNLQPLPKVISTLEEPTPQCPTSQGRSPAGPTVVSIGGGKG
Experiment: Dopamine beta hydroxylase activity in human plasma
Assay type: biochemical
Settings: inhibitor 0.1 μM
test-readout: Plasma (0.1 μM), activity in % of control

Cn1c(CC(=O)N[C@@H]2CCOC2)c2n(c1=S)C[C@H](c1c(F)ccc(F)c1F)C2 [Example 412] = 63.2 % of control

Query: Look at this compound and give its reported Plasma (0.1 μM), activity in % of control. Cn1c(CC(=O)NC2CCCCC2)c2n(c1=S)C[C@H](c1c(F)ccc(Cl)c1F)C2 [Example 356]
Reply: 6.6 % of control

Query: Look at this compound and give its reported Plasma (0.1 μM), activity in % of control. Cn1c(CC(=O)N[C@@H]2CCCOC2)c2n(c1=S)C[C@@]1(c3cc(Cl)ccc3F)C[C@@H]21 [Example 301]
Reply: 6.4 % of control

Query: Look at this compound and give its reported Plasma (0.1 μM), activity in % of control. Cn1c(CC(=O)NC2CCOCC2)c2n(c1=S)C[C@@]1(c3c(F)ccc(Cl)c3F)C[C@@H]21 [Example 423]
Reply: 1.7 % of control

Query: Look at this compound and give its reported Plasma (0.1 μM), activity in % of control. Cl.O=C(Cc1[nH]c(=S)n2c1C[C@@H](c1c(F)ccc(Cl)c1F)C2)NCCN1CCC(F)(F)CC1 [Example 115]
Reply: 0 % of control

Query: Look at this compound and give its reported Plasma (0.1 μM), activity in % of control. O=C(Cc1[nH]c(=S)n2c1[C@@H]1C[C@]1(c1c(F)ccc(Cl)c1F)C2)NCC(F)(F)F [Example 150]
Reply: 17.1 % of control

Query: Look at this compound and give its reported Plasma (0.1 μM), activity in % of control. CN(C(=O)Cc1c2n(c(=S)n1C)C[C@H](c1c(F)ccc(Br)c1F)C2)C1CCOCC1 [Example 405]
Reply: 4.5 % of control

---

biological target: Dopamine beta hydroxylase (Homo sapiens, UniProt P09172); construct: 125 μl of plasma; tissue Instituto Português do Sangue Transplantação; host or cells: human plasma from healthy donors; test: Dopamine beta hydroxylase activity in human plasma; type: biochemical; settings: inhibitor 0.1 μM
Plasma (0.1 μM), activity in % of control overview

Cn1c(CC(=O)N2CCC(CF)C2)c2n(c1=S)C[C@H](c1c(F)ccc(Br)c1F)C2 (stereo partly shown) = 12.2 % of control
Cn1c(CC(=O)N2CCC(CF)C2)c2n(c1=S)C[C@@H](c1c(F)ccc(F)c1F)C2 (stereo partly shown) = 38.4 % of control
CN1CCN(C(=O)Cc2c3n(c(=S)n2C)C[C@@H](c2c(F)c(F)cc(F)c2F)C3)CC1=O = 53.1 % of control
CCCNC(=O)Cc1[nH]c(=S)n2c1C[C@@H](c1c(F)ccc(Br)c1F)C2 = 22.7 % of control
COCCNC(=O)Cc1[nH]c(=S)n2c1C[C@@H](c1c(F)ccc(Cl)c1F)C2 = 40.1 % of control

Query: Look at this compound and give its reported Plasma (0.1 μM), activity in % of control. NC(=O)Cc1[nH]c(=S)n2c1[C@@H]1C[C@]1(c1cc(F)cc(Cl)c1)C2
Reply: 59.2 % of control

Query: Look at this compound and give its reported Plasma (0.1 μM), activity in % of control. CNCCc1[nH]c(=S)n2c1C[C@@H](c1c(F)ccc(Cl)c1F)C2.Cl
Reply: 46.3 % of control

Query: Look at this compound and give its reported Plasma (0.1 μM), activity in % of control. Cn1c(CCC(N)=O)c2n(c1=S)C[C@H](c1c(F)ccc(Cl)c1F)C2
Reply: 70.1 % of control

Query: Look at this compound and give its reported Plasma (0.1 μM), activity in % of control. CN(C)CCCNC(=O)Cc1[nH]c(=S)n2c1[C@@H]1C[C@]1(c1cc(Br)ccc1F)C2.Cl
Reply: 13.8 % of control

Query: Look at this compound and give its reported Plasma (0.1 μM), activity in % of control. O=C(Cc1[nH]c(=S)n2c1C[C@H](c1c(F)c(F)cc(F)c1F)C2)N[C@H]1CCOC1
Reply: 60.1 % of control

---

Biological target: Dopamine beta hydroxylase (Homo sapiens, UniProt P09172)
Construct: 125 μl of plasma; tissue Instituto Português do Sangue Transplantação; host or cells: human plasma from healthy donors
Sequence (P09172 40-617 limits assumed): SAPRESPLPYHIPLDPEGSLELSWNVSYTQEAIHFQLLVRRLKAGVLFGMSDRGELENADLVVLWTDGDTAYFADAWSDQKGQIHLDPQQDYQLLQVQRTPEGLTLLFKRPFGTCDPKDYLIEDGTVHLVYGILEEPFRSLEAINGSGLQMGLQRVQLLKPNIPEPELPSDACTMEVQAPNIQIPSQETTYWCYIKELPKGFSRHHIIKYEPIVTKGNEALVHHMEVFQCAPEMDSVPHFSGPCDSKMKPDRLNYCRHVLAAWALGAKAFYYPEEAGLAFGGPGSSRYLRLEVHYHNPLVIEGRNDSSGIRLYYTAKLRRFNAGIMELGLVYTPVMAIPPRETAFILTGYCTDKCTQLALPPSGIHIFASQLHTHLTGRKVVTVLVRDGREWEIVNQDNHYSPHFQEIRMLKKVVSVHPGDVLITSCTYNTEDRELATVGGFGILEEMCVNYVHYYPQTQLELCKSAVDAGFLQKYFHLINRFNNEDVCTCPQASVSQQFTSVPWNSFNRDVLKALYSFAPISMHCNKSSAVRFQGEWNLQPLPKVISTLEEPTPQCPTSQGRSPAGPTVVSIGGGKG
Experiment: Dopamine beta hydroxylase activity in human plasma
Format: biochemical
Settings: inhibitor 0.01 μM
Plasma (0.01 μM), activity in % of control overview

O=C(Cc1[nH]c(=S)n2c1C[C@@H](c1c(F)ccc(Br)c1F)C2)N1CCC2(CCOC2)CC1 [Example 165] = 74.3 % of control
CN1CCN(C(=O)Cc2c3n(c(=S)n2C)C[C@@H](c2c(F)c(F)cc(F)c2F)C3)CC1=O [Example 324] = 88.6 % of control
Cn1c(CCC(N)=O)c2n(c1=S)C[C@H](c1c(F)ccc(Cl)c1F)C2 [Example 262] = 82.6 % of control
Fc1ccc(F)c([C@H]2Cc3c(CCCN4CCCC4)[nH]c(=S)n3C2)c1F [Example 478] = 46.7 % of control
Cn1c(CC(=O)N[C@@H]2CCCOC2)c2n(c1=S)C[C@@]1(c3cc(Br)ccc3F)C[C@@H]21 [Example 277] = 35.4 % of control
Cl.Fc1ccc(F)c([C@H]2Cc3c(CCNC[C@@H]4CCCO4)[nH]c(=S)n3C2)c1F [Example 475] = 85.0 % of control
Cn1c(CC(=O)N2CCC[C@@H]2C(F)(F)F)c2n(c1=S)C[C@@H](c1c(F)ccc(F)c1F)C2 [Example 344] = 88.2 % of control
Cn1cc(NC(=O)Cc2c3n(c(=S)n2C)C[C@H](c2c(F)ccc(Cl)c2F)C3)cn1 [Example 350] = 85.7 % of control

Query: Look at this molecule and give its reported Plasma (0.01 μM), activity in % of control. Cn1c(CC(=O)N2CCC(CF)C2)c2n(c1=S)C[C@H](c1c(F)ccc(Br)c1F)C2 (stereo partly shown) [Example 458]
Reply: 58.5 % of control

Query: Look at this molecule and give its reported Plasma (0.01 μM), activity in % of control. Cn1c(CC(=O)Nc2ncco2)c2n(c1=S)C[C@H](c1c(F)ccc(Cl)c1F)C2 [Example 317]
Reply: 45.6 % of control
